assay: A quantitative high throughput screen for small molecules that induce DNA re-replication in MCF 10a normal breast cells.; note: nearly all actives have a fitted effect of over 50% in size; settings: MCF 10A DNA re-replication, Hoechst nuclear intensity, 48 h; series mostly up to 46.1 µM
Among all 350,000 compounds or so, about 9,900 (2.8%) were called active. Inconclusive results (about 15%) are left out. Calls come from the whole dose curve; as a rule, active = well fitted activation curve with a large enough effect; inconclusive = small, poorly fitted or top-dose-only effect; inactive = no such curve, though single readings can be large or run the other way. The sample holds actives, similar compounds and a random draw of the others, so the mix is not that of the screen.
Classes used: TRUE for active, FALSE for inactive

{"molecule": "CC(C)c1ccc(OCC(O)CN2CCN(c3ccccn3)CC2)cc1 (stereo unspecified)", "category label": "TRUE"}
{"molecule": "O=C(CC(O)(C(F)(F)F)C(F)(F)F)Nc1ccc(Cl)c(Cl)c1", "category label": "TRUE"}
{"molecule": "Cc1ccc(OCCOCCOc2ccc(Br)cc2/C=N\\NC(=O)c2ccncc2)cc1", "category label": "TRUE"}
{"molecule": "CN1C(=O)c2ccc(NC(=O)C3CCCCC3)cc2C1=O", "category label": "TRUE"}
{"molecule": "Cc1ccccc1OCC(O)CN1CCN(c2ccccn2)CC1 (stereo unspecified)", "category label": "FALSE"}
{"molecule": "Cc1ccc(S(=O)(=O)Oc2ccc(/C=N/NC(=O)c3ccncc3)cc2)cc1", "category label": "FALSE"}
{"molecule": "C[C@@H]1NS(=O)(=O)c2cc(Cl)ccc2O[C@@H]1c1ccccc1", "category label": "FALSE"}
{"molecule": "Cc1ccc(OCCCC(=O)Nc2ccc3c(c2)OCCO3)cc1", "category label": "FALSE"}
{"molecule": "Cc1ccc(NC(=O)C/C(N)=N/O)cc1Cl", "category label": "FALSE"}
{"molecule": "CN1C(=O)c2ccc(NC(=O)c3c(F)c(F)c(F)c(F)c3F)cc2C1=O", "category label": "FALSE"}
{"molecule": "C[C@]12CCC(=O)C=C1C=CC1C2CC[C@@]2(C)C1CC[C@@]21CCC(=O)O1 (stereo partly specified)", "category label": "FALSE"}
